All values here come from PubChem BioAssay (NCI).

Test system: M14 melanoma
assay.info: NCI tumour cell line growth inhibition, 48 h
reported.endpoint: TGI

Item O=C1c2cc(Cl)ccc2-c2c1c1ccc([N+](=O)[O-])cc1c(=O)n2CCCBr has what recorded TGI?
64.2 µM

Please do the same for Nc1ccc(C(=O)CC(N)C(=O)O)cc1O (stereo unspecified) as well.
> 100 µM

// query: COC(=O)c1ccccc1NC(=O)C(=O)NNC(=O)c1ccncc1
> 100 µM

// next record Cc1[nH]c(=O)nc(NCCNCCO)c1C(=O)Nc1cccc2cc3ccccc3cc12
> 100 µM

Now give it for NCCCCNc1ccc2c(=O)[nH][nH]c(=O)c2c1 too.
> 100 µM

Quick one: S=C(N/N=C\C(=N/NC(=S)N1CCCCC1)c1ccccc1)N1CCCCC1
3.61 µM

Next molecule up: CC[C@H](Nc1nc(C)nc(N)c1C#N)c1nc2cccc(NCc3ccc(C(=O)NO)cc3)c2c(=O)n1-c1ccccc1
5.85 µM

Okay, and N#C/C(=C/n1c(=S)[nH]c2ccc([N+](=O)[O-])cc21)C(N)=O ?
> 100 µM

Would you mind doing COc1ccc(Cn2cc3c(c2)-c2oncc2CC3)cc1 as well?
61.7 µM

Continue with CC(C)N1CC2CC(CN(C(=O)c3ccccc3)C2)C1
> 100 µM

For COc1ccc2cc(-c3c(-c4ccncc4)nc(-c4ccc(S(C)(=O)=O)cc4C)n3C)ccc2c1 then?
> 25 µM

Another molecule: OCCNc1ncnc2c1ncn2Cc1cccc(COc2cccc(OCc3cccc(Cn4cnc5c(NCCO)ncnc54)c3)c2)c1
33.3 µM

Repeat with O=c1cc(-c2ccncc2)[nH]c2cc3c(cc12)OCO3
> 100 µM

Another molecule to look at: COc1ccc(Nc2nc(N)c(C(=O)c3c[nH]c4ccccc34)s2)cc1
16.4 µM

Repeat with CCOC(=O)c1s/c(=N\Nc2nc3ccccc3cc2C2OCCO2)n(Cc2ccccc2)c1C
> 100 µM

Same lookup for COc1ccccc1CN=C1Nc2ccncc2S(=O)(=O)N1c1ccccc1 , please.
> 100 µM
